molecular target: Fibroblast growth factor 10 (Homo sapiens); test: compounds binding fibroblast growth factor 10 – biochemical, small-molecule microarray, 635 nm fluorescence, primary screen (AID 1102); settings: FGF10 binding, fluorescence 635 nm, higher = more signal
Consider the following compounds; for each one, report its composite z-score.
Answer field: number only, no words.

Field: composite z-score (Fibroblast growth factor 10 (Homo sapiens)). Entry: N#Cc1ccc(NN2C(C(O)c3ccco3)C=CC3C(=O)N(c4ccccc4)C(=O)C32)cc1 (stereo not drawn)
0.505

Also COc1ccc(C#Cc2ccc3c(c2)[C@]2(C(=O)N3)[C@H](C(N)=O)[C@H]3C(=O)O[C@H](c4ccccc4)[C@H](c4ccccc4)N3[C@@H]2c2ccc(O)cc2)cc1 , if possible.
0.904

Also C=CCOC(=O)[C@H]1[C@@H]2C(=O)O[C@@H](c3ccccc3)[C@@H](c3ccccc3)N2[C@@H](c2ccc(OCCOC(=O)[C@H]3C[C@H]4C(=O)N[C@@H](CCCCN(C)C)C(=O)N4[C@H]3c3ccc(O)cc3)cc2)[C@]12C(=O)Nc1ccccc12 , if possible.
1

Also COC(=O)[C@]1(Cc2ccccc2CN=[N+]=[N-])N=C(c2ccc(OCCCO)cc2)O[C@@H]1c1ccccc1CN=[N+]=[N-] , if possible.
0.468

Also Cc1ccc(N2C(=O)c3ccccc3[C@](C)(C(=O)NC(C)C)[C@@H]2c2ccc(CO)cc2)nc1 , if possible.
-1.22

Also COc1ccc([Si](C)(C)[C@@H]2[C@@H](CCO)O[C@]3(C(=O)N(Cc4ccccc4)c4ccc(N5C(=O)COc6ccccc65)cc43)[C@H]2C)cc1 , if possible.
0.0677

Also CCOC(=O)C[C@H]1[C@H](OC(=O)Cc2ccc3c(c2)OCO3)[C@@H](NC(=O)c2ccccc2)c2cc(OCCCO)ccc2N1C(=O)c1ccccc1 , if possible.
0.603

Also COCCOC(=O)N1C(=O)[C@@]2(c3cc(C#Cc4ccc(OC)cc4)ccc31)[C@H](C(=O)N1CCc3cc(OC)c(OC)cc3C1)[C@H]1C(=O)O[C@H](c3ccccc3)[C@H](c3ccccc3)N1[C@@H]2c1ccc(O)cc1 , if possible.
1.06

Also CCOC(=O)C1=CC[C@@H](c2cccc(Br)c2)N(S(=O)(=O)c2ccc(C)cc2)[C@H]1c1ccc([N+](=O)[O-])cc1 , if possible.
1.2

Also CCCc1cc2c(n1Cc1ccc(OC)cc1)C(C)C1CN(C(=O)c3ccccc3)C(C)(C(=O)OC)C21 (stereo not drawn) , if possible.
0.303

Also CC(C)C[C@@H]1NC(=O)[C@@H]2C[C@H](C(=O)NCCCC[N+](C)(C)C)[C@H](c3cccc(OCCO)c3)N2C1=O , if possible.
0.59

Also O=C1N(CCS(=O)(=O)c2ccccc2)c2ccccc2[C@H]2OC(c3ccc(OCCCO)cc3)=N[C@@]12CCS(=O)(=O)c1ccccc1 , if possible.
1.35

Also COCCOC(=O)N1C(=O)[C@@]2(c3ccccc31)[C@H](c1ccc(OCCO)cc1)N1[C@H](c3ccccc3)[C@H](c3ccccc3)OC(=O)[C@H]1[C@@H]2C(=O)NC[C@H](O)c1ccccc1 , if possible.
1.2

Also C[C@H]1NC(=O)C([C@@H](C)OCc2ccccc2)NC(=O)[C@@]23C(=O)N[C@@H](Cc4ccccc4)C2[C@H](C)[C@@]2(C)O[C@H]2C3/C=C/CC/C=C/CNC1=O (stereo partly drawn) , if possible.
0.365

Also Cc1ccc(C(C)CC(O)C2C=CC3C(=O)N(Cc4ccccc4)C(=O)C3N2n2cnnc2)o1 (stereo not drawn) , if possible.
0.841

Also COCCCNC(=O)[C@]1(Cc2ccccc2)N=C(c2ccc(OCCCO)cc2)O[C@@H]1c1ccccc1N=[N+]=[N-] , if possible.
1.26

Also O=C(NCc1ccccc1)[C@]1(Cc2ccccc2)N=C(c2ccc(OCCCO)cc2)O[C@@H]1c1ccccc1 , if possible.
0.154

Also O=c1c2ccc(Br)cc2nc(-c2ccccc2)n1Cc1cccc(O)c1 , if possible.
0.528
